Source listed as ChEMBL document CHEMBL5154738.

- Method Summary: Inhibition of gluconeogenesis in C57BL/6J mouse primary hepatocytes assessed as inhibition of glucagon-stimulated glucose production at 10 uM preincubated for 1.5 hrs followed by lactate and pyruvate addition and later stimulated with glucagon for 4 hrs
- Assay type: functional
- Applied Conditions: Hepatocyte, time 5.5 hrs
Experimental Readout: inhibition at 10 µM
// unit must come after the numeric part

These recorded examples may help you get a feel for the data.
[[record]]
smiles_entry = "COC(=O)[C@@]12CCCC3([C@H](O)OC1)[C@H]2CC[C@H]1[C@@H](C)c2ccoc2C[C@@H]13"
experimental_readout = "inhibition at 10 µM"
reported_measurement = "70.5%"

[[record]]
smiles_entry = "CCCCO[C@@H]1OC[C@@]2(C(=O)OC)CCCC13[C@H]2CC[C@H]1[C@@H](C)c2ccoc2C[C@@H]13"
experimental_readout = "inhibition at 10 µM"
reported_measurement = "36.2%"

[[record]]
smiles_entry = "COC(=O)[C@@]12CCCC3([C@H](OCCCO)OC1)[C@H]2CC[C@H]1[C@@H](C)c2ccoc2C[C@@H]13"
experimental_readout = "inhibition at 10 µM"
reported_measurement = "97.5%"

[[record]]
smiles_entry = "CC(=O)OC[C@@]12CCCC3([C@H](OCCO)OC1)[C@H]2CC[C@H]1[C@@H](C)c2ccoc2C[C@@H]13"
experimental_readout = "inhibition at 10 µM"
reported_measurement = "82.7%"

[[record]]
smiles_entry = "COC(=O)[C@@]12CCCC3([C@H](OCCCCO)OC1)[C@H]2CC[C@H]1[C@@H](C)c2ccoc2C[C@@H]13"
experimental_readout = "inhibition at 10 µM"
reported_measurement = "92.7%"


Next compound, inhibition at 10 µM to be filled in.
Input line: Look up inhibition at 10 µM of "CCO[C@@H]1OC[C@@]2(C(=O)OC)CCCC13[C@H]2CC[C@H]1[C@@H](C)c2ccoc2C[C@@H]13" and report it.
Output line: 24.9%

* * *

- Method Summary: Cytotoxicity against C57BL/6J mouse primary hepatocytes assessed as cell viability at 20 uM incubated for 24 hrs by MTT assay relative to control
- Type: toxicity, cell-based, Hepatocyte
- Applied Conditions: read-out: Activity
# maps each entry to its viability at 24 h, 20 µM
Please reply with the bare figure in % and do not write the unit itself.

Input line: Identify viability at 24 h, 20 µM associated with the molecule "COC(=O)[C@@]12CCCC3([C@H](OCCCCCO)OC1)[C@H]2CC[C@H]1[C@@H](C)c2ccoc2C[C@@H]13"
Output line: 33.3

Input line: Write down viability at 24 h, 20 µM measured for item "COC(=O)[C@@]12CCCC3([C@H](OCCCCO)OC1)[C@H]2CC[C@H]1[C@@H](C)c2ccoc2C[C@@H]13"
Output line: 27.5

Input line: Retrieve viability at 24 h, 20 µM measured for "COC(=O)[C@@]12CCCC3([C@H](OCCOCCOCCOCCO)OC1)[C@H]2CC[C@H]1[C@@H](C)c2ccoc2C[C@@H]13" and print it.
Output line: 25.4

Input line: For the molecule "CC(=O)OCCO[C@@H]1OC[C@@]2(CO)CCCC13[C@H]2CC[C@H]1[C@@H](C)c2ccoc2C[C@@H]13" , report viability at 24 h, 20 µM.
Output line: 84.1

Input line: // Input: "COC(=O)[C@@]12CCCC3([C@H](OCCOCCO)OC1)[C@H]2CC[C@H]1[C@@H](C)c2ccoc2C[C@@H]13" . Output its viability at 24 h, 20 µM only.
Output line: 17.4
